Values were extracted from ChEMBL document CHEMBL1201862.

Test system: SK-MEL-5
Assay Summary: NCI tumour cell line growth inhibition, 48 h
Activity calls are given as the source filed them. Cut-off read from the data, not from the text of the source: active = GI50 up to about 1.1 µM and inactive = higher.
Respond only with the outcome that fits, drawn from t (active), f (inactive)

Worked cases, answers included:
CN(C)CC1(Cc2ccccc2)CCC(Cc2ccccc2)C1=O (stereo unspecified) | f
CC(=O)c1sc2n(C)c(=O)c3ccccc3[n+]2c1C | f
COC(=O)/C(C#N)=C1\NC(=O)CC(c2ccccc2)C1C#N (stereo unspecified) | f
O=C(O)CN(CC(=O)O)Cc1ccn(-c2cccc(-n3ccc(CN(CC(=O)O)CC(=O)O)n3)n2)n1 | f
O=CC1=C(C(=O)OC(c2ccccc2)c2ccccc2)N2C(=O)[C@@H](NC(=O)Cc3cccs3)[C@H]2SC1 | f

Q: Call for entry Cc1cc(S(=O)(=O)N/C(=C(\C#N)C(=O)c2ccccc2)[n+]2ccc(N(C)C)cc2)c([S-])cc1Cl :
Ans: f

Q: Call for entry CN(C)CCNc1c([N+](=O)[O-])cc2c3c(cccc13)C(=O)N(CCN(C)C)C2=O :
Ans: f

Q: Call for entry O=P(c1ccccc1)(c1ccccc1)C1CC=C(c2ccccc2)C2(CCCC2)C1 (stereo unspecified) :
Ans: f

---

System: HT-29
Assay Summary: NCI tumour cell line growth inhibition, 48 h
Calls of active or inactive are those of the source. Rule as the data show it: active = GI50 up to about 1.1 µM and inactive = higher.
Respond only with the outcome that fits, drawn from yes (1) = active, no (0) = inactive

Worked cases, answers included:
O=C1OC2(c3ccc(O)cc3Oc3cc(O)ccc32)c2c1c(-c1ccccc1)c(-c1ccccc1)c(-c1ccccc1)c2-c1ccccc1 | no (0)
CC(=O)N1N=C(N)CC1=O | no (0)
CC1(C)[C@@H]2CC[C@@]1(C)[C@H](O)[C@@H]2SCc1ccccc1 | no (0)
CCNCCCNc1c2ccccc2nc2ccccc12 | yes (1)
COC(=O)/C(C#N)=C1\NC(=O)CC(c2ccccc2)C1C#N (stereo unspecified) | no (0)
CC1SC(c2ccccc2)N(Nc2c3ccccc3nc3ccccc23)C1=O (stereo unspecified) | no (0)

Okay, now this molecule:
Q: Call for entry [O-][Cl+3]([O-])([O-])O.c1ccc(/N=c2\nc(N3CCOCC3)ss2)cc1 :
Ans: no (0)

---

System: BT-549
Assay Summary: NCI tumour cell line growth inhibition, 48 h
The source made the active and inactive calls. Cut-off read from the data, not from the text of the source: active = GI50 up to about 1.1 µM and inactive = higher.
# maps each entry to its GI50

Completed entries (count: 3):
O=c1ccn(C2OC(CO)C(P(=O)(O)O)C2O)c(=O)[nH]1 (centres undefined) | > 100 µM (inactive)
Oc1ccc(CCc2cc(O)cc(O)c2)cc1 [DIHYDRORESVERATROL] | > 100 µM (inactive)
O=C(c1ccccc1)n1[nH]c(=O)n(-c2ccc(Cl)cc2)c1=O | > 100 µM (inactive)

For this molecule ( O=C1CC(=O)c2c(N3CCCC3)sc(N3CCCC3)c21 ), measured GI50 is > 100 µM (inactive)

For this molecule ( NCCNCCCCCCNC(=O)c1cccc2cc3ccccc3nc12 ), measured GI50 is 11.4 µM (inactive)

For this molecule ( CC(C)c1ccc2c(c1)C=C1OC(=O)[C@]3(C)CCC[C@@]2(C)C13 (some centres undefined) ), measured GI50 is > 100 µM (inactive)

For this molecule ( COc1ccccc1Cn1c2c(c3cc(O)ccc31)C(=O)c1ccccc1C2=O ), measured GI50 is > 100 µM (inactive)

For this molecule ( CC(C)(C)N(Cc1ccc2c(c1)OCO2)C(=O)/C=C\[S+]([O-])c1ccccc1 (centres undefined) ), measured GI50 is 2.43 µM (inactive)

For this molecule ( COc1ccc2c3c1O[C@H]1C(O)CCC4(O)[C@@H](C2)NCC[C@]314 (some centres undefined) ), measured GI50 is > 100 µM (inactive)

For this molecule ( COc1cc(C2C3=C(COC3=O)OC(C)(C)Oc3cc4c(cc32)OCO4)cc(OC)c1OC (centres undefined) ), measured GI50 is 6.67 µM (inactive)

For this molecule ( COC(=O)C(C(=O)C(=O)NC1Nc2ccc(C)cc2S1)c1nc2ccc(Cl)cc2nc1O (centres undefined) ), measured GI50 is > 100 µM (inactive)

For this molecule ( COc1cc(C2c3cc4c(cc3OC(NCCO)C2C)OCO4)cc(OC)c1OC (centres undefined) ), measured GI50 is 3.66 µM (inactive)

For this molecule ( [O-][Cl+3]([O-])([O-])O.c1ccc(C2=NN2c2ccccc2)cc1 ), measured GI50 is > 100 µM (inactive)

For this molecule ( CC1CC(C)(C)CC(OCCN2CCCCC2)(c2ccccc2)C1 (centres undefined) ), measured GI50 is 12.7 µM (inactive)

For this molecule ( CN(C)CC1(Cc2ccccc2)CCC(Cc2ccccc2)C1=O (centres undefined) ), measured GI50 is 8.95 µM (inactive)

---

System: 786-0
Assay Summary: NCI tumour cell line growth inhibition, 48 h
The source made the active and inactive calls. Cut-off read from the data, not from the text of the source: active = GI50 up to about 1.1 µM and inactive = higher.
Measure: GI50

Completed entries (count: 3):
COC(=O)N1C=CC2=C(C)C3Nc4ccccc4C3C(C)=C2C1 (stereo unspecified) | 0.54 µM (active)
COc1cccc2c1NC(=O)Cc1c-2[nH]c2ccccc12 | > 100 µM (inactive)
CCc1cccc(=O)c([O-])c1.CCc1cccc(=O)c([O-])c1.[Bi+3].[Cl-] | 9.1 µM (inactive)

Then this compound:
For this compound ( O=C(c1ccccc1)n1[nH]c(=O)n(-c2ccc(Cl)cc2)c1=O ), measured GI50 is > 100 µM (inactive)

---

System: SK-MEL-28
Assay Summary: NCI tumour cell line growth inhibition, 48 h
The source made the active and inactive calls. No stated cut-off is given here; in the data, active = GI50 up to about 1.1 µM and inactive = higher.
Respond only with the outcome that fits, drawn from t (active), f (inactive)

Q: Call for entry Cn1nc(-c2ccccc2)c(C(=O)/C=C/c2ccc(F)cc2)c(N2CCOCC2)c1=O :
Ans: f

Q: Call for entry Cc1ccc(/C=C/C(=O)c2ccc([N+](=O)[O-])cc2)cc1 :
Ans: f

Q: Call for entry CC1(C)S[C@@H]2[C@H](NC(=O)CCC[C@@H](N)C(=O)O)C(=O)N2[C@H]1C(=O)O :
Ans: f

Q: Call for entry FC(F)(Sc1ncc[nH]1)c1nc2ccccc2o1 :
Ans: f

Q: Call for entry [O-][Cl+3]([O-])([O-])O.c1ccc(/N=c2\nc(N3CCOCC3)ss2)cc1 :
Ans: f

Q: Call for entry Cc1ccccc1NC(=S)N/N=C1\C(=O)Nc2ccccc21 :
Ans: f

Q: Call for entry CC(C)=CCc1c(O)ccc2c1OC1c3ccc(O)c(CC=C(C)C)c3OCC21 (configuration not stated) :
Ans: f

---

Test system: MDA-N
Assay Summary: NCI tumour cell line growth inhibition, 48 h
Counter-ions that a name gives are not always drawn. Calls of active or inactive are those of the source. Rule as the data show it: active = GI50 up to about 1.1 µM and inactive = higher.
Respond only with the outcome that fits, drawn from active, inactive

Worked cases, answers included:
Nc1nc(N)c2nc(CNc3ccc(C(=O)O)cc3)[nH]c2n1 | inactive
CCOC(=O)C1C[C@H]2CO[C@H](c3ccccc3)N2C1=O (stereo not given in full) | inactive
O=C1c2c(O)cccc2-c2nn(CCNCCO)c3ccc(NCCNCCO)c1c23 [LOSOXANTRONE HYDROCHLORIDE] | active

Q: Call for entry COc1cc(OC)c(CSCC(NC(=O)OCC2c3ccccc3-c3ccccc32)C(=O)O)c(OC)c1 (stereo not given) :
Ans: inactive

Q: Call for entry O=C1C=CC[C@H]2O[C@@H](COC(=O)Cc3ccccc3)C[C@H]2O1 :
Ans: inactive

Q: Call for entry C=CCOc1ccc(C2c3c(n[nH]c3O)CC(O)(OCC)C2C(=O)OCC)cc1OC (stereo not given) :
Ans: inactive

Q: Call for entry CCCCCC(/C=N/Nc1ccccc1)C(O)(C(F)(F)F)C(F)(F)F (stereo not given) :
Ans: inactive

Q: Call for entry CN1CCN([C@H]2C[C@H]3[C@@H]4CC=C5C[C@@H](O)CC[C@]5(C)[C@H]4CC[C@]3(C)[C@H]2O)CC1 :
Ans: inactive

Q: Call for entry [O-]c1c[n+](CC[n+]2cc([O-])on2)no1 :
Ans: inactive

Q: Call for entry O=C1NC(N2CCOCC2)=N/C1=C\c1ccccc1O :
Ans: inactive

---

Here's what we have: GI50 numbers for HCT-15.

Completed entries (count: 8):
Cc1ccc2c(c1)C(=O)/C(=C1/CCc3ccc(C)cc31)C2 | > 100 µM
O=C1OC2(c3ccc(O)cc3Oc3cc(O)ccc32)c2c1c(-c1ccccc1)c(-c1ccccc1)c(-c1ccccc1)c2-c1ccccc1 | 18.7 µM
Cc1cc(Cl)ccc1NC(=O)/C(Cl)=C(/Cl)C(=O)O | 18.7 µM
O=C1NC(N2CCOCC2)=N/C1=C\c1ccccc1O | > 100 µM
O=C(N/N=C(COc1ccccc1Cl)\N=C\c1cccnc1)c1ccncc1 | > 100 µM
C/C(=N\Nc1nc2ccccc2[nH]1)c1cc2ccccc2cn1 | < 0.0106 µM
CCOC(=O)C(C)NC(=O)N(C)C12CC3CC(CC(C3)C1)C2 (stereo not given) | 187 µM
NNC(=O)CSc1nnc(CCCCCCCCc2nnc(SCC(=O)NN)o2)o1 | > 100 µM

For this molecule ( COC(=O)C1CC2(c3ccccc3)C(=O)c3ccccc3N2O1 (stereo not given) ), measured GI50 is 43.1 µM

For this molecule ( Cc1cc2c(c(S(=O)(=O)c3ccccc3[N+](=O)[O-])c1)NCCC2 ), measured GI50 is 33.7 µM
